Values compiled from ChEMBL document CHEMBL1131193.

test: Inhibitory activity was measured for Glyceraldehyde-3-phosphate dehydrogenase (GAPDH) in Leishmania. mexicana.
MEASUREMENT_KIND: pIC50
Lab note — pIC50 values are minus log10 of concentrations in M.

Reported pIC50 ( CC(C)CCNc1ncnc2c1ncn2[C@@H]1O[C@H](CO)[C@@H](O)[C@H]1O ) = 2.43

---

assay: Inhibitory activity measured for Glyceraldehyde-3-phosphate dehydrogenase (GAPDH) in Leishmania. mexicana
Documented pIC50 across a set of compounds
The scale used: pIC50 is minus the common logarithm of the concentration in molar units.

COMPOUND	RECORDED_MEASUREMENT
CC(CO)CCNc1ncnc2c1ncn2C1O[C@H](CO)[C@@H](O)[C@H]1O (stereo partly drawn)	2.47

// switching to the query compound
Briefly, pIC50 measured for COc1cccc(C(=O)N[C@@H]2[C@H](O)[C@@H](CO)O[C@H]2n2cnc3c(NCc4cccc(C)c4C)ncnc32)c1 : 5.26
